- System: NCI-H23 lung
- TEST: NCI tumour cell line growth inhibition, 48 h
ASSAY_METRIC: TGI (µM)

> print(dat)
                                    compound  unit.annotation  reading.qualifier  observed.result
 1  CC(C)NC(=O)OCc1c(COC(=O)NC(C)C)c(-c2cc[n+](COC(=O)CC(C)(C)C)cc2)n2c1CCC2               µM                  >              100
 2    CC1(C)C(=NNC(=S)NN)C(C)(C)C1=NNC(=S)NN               µM                  >              100
 3  CN(C)CCCNc1nc2ccccc2c2c(=O)c3cc(F)ccc3sc12               µM                  =             3.17
 4  CC1(C)OC(C(C)(C)O)C(C(C)(C)O)O1 (stereo not given)               µM                  >              100
 5  C=CCOC1=C(OC(C)=O)C(=O)OC1C1COC(C)(C)O1 (stereo not given)               µM                  >             83.2
 6  CN(C)c1ccc(C2C(Cl)C(=O)N2NC(=O)c2c(Cl)c(Cl)c(Cl)c(Cl)c2-c2nc3ccccc3[nH]2)cc1 (stereo not given)               µM                  =             29.7
 7  COC(=O)N/N=C(/CC1(O)C(=O)Nc2ccc([N+](=O)[O-])cc21)c1ccccc1 (stereo not given)               µM                  >             60.1
 8  COc1cc(C=C2c3ccccc3C(=O)c3ccccc32)ccc1OCCCCOc1cc2c(cc1OC)C(=O)N1CCCC1C=N2 (stereo not given)               µM                  =             1.49
 9                         C=CCN1C(=O)CNC1=S               µM                  >              100
10  CN(C)CCNc1c2c(c(NCCN(C)C)c3c(CN(C)C)c[nH]c13)C(=O)c1ccccc1C2=O               µM                  =             14.6

* * *

- System: M19-MEL melanoma
- TEST: NCI tumour cell line growth inhibition, 48 h
ASSAY_METRIC: TGI

> print(dat)
                                   compound    assayed.target  observed.result
1  Cc1ccc(N=Nc2c(C)nn(-c3ccccc3)c2C)c(Br)c1  M19-MEL melanoma         > 100 µM
2  CCOC(=O)/C=C1/Oc2ccccc2C1(C)O (stereo not drawn)  M19-MEL melanoma         > 100 µM
3  Cn1c(C2CCCc3c2c2ccccc2n3C)cc2ccccc21 (stereo not drawn)  M19-MEL melanoma         > 318 µM
4  N#CC1(C#N)C(c2ccc(C3C(C#N)(C#N)C3(C#N)C#N)cc2)C1(C#N)C#N  M19-MEL melanoma         > 100 µM
5  COc1cc2c(c(OC)c1OC)CCNC2C1=C(O)COC1=O (stereo not drawn)  M19-MEL melanoma         > 100 µM
6       COc1ccc(Cc2nccc3cc(OC)c(OC)cc23)cc1  M19-MEL melanoma         > 100 µM
7  COC(=O)/C(C#N)=C1\CCC(OC)N1 (stereo not drawn)  M19-MEL melanoma         > 100 µM
8  Cc1cc(C)nc(NS(=O)(=O)c2ccc(NC(=O)c3cccc4c(Nc5ccc(S(=O)(=O)N=C(N)N)cc5)c5ccccc5nc34)cc2)n1  M19-MEL melanoma         > 100 µM

* * *

Quick reference: TGI of the listed items.
- Tested on: MDA-MB-231 breast
- TEST: NCI tumour cell line growth inhibition, 48 h
ASSAY_METRIC: TGI (µM)

MOLECULE	READING_QUALIFIER	OBSERVED_RESULT
CCOC(=O)C(CC(C)C)NC(=O)C(Cc1ccc(N(CCCl)CCCl)cc1)NC(C)=O (stereo unspecified)	=	23.2
CCOC(=O)c1c(Sc2ccc([N+](=O)[O-])cc2[N+](=O)[O-])nc2c3ccccc3ccn12	>	100
COC(=O)[C@]1(C)CC[C@]2(C)CC[C@]3(C)C4[C@H]5Oc6c(cc7c(c6C)CCC6[C@@]7(C)CC[C@@]7(C)C8[C@](C)(CCC[C@@]8(C)C(=O)OC)CC[C@]67C)O[C@H]5c5c(cc6c(c5C)O[C@@]5(C)C7=CC=C8[C@@](C)(CC[C@@]9(C)[C@@H]%10C[C@](C)(C(=O)OC)CC[C@]%10(C)CC[C@]89C)C7=CC(=O)[C@@]5(O)O6)[C@]4(C)CC[C@@]3(C)C2C1 (stereo partly specified)	=	7.08
CCCCc1ccc(NS(=O)(=O)c2cc3c4c(c2)CCN4C(=O)CC3)cc1	>	100
COc1cccc2c1C(=O)c1c(O)c3c(c(O)c1C2=O)C[C@@](O)(C(=O)CO)C[C@@H]3OC1CC(N(C)C)C(O)C(C)O1 (stereo partly specified)	=	0.615
CO[C@H]1/C=C/[C@@](C)(O)/C=C/C(=O)O[C@H](C)[C@@H](C)CC/C=C/1C	=	45.1
CC(=O)c1ccc(Nc2cc(-n3nnc4ccccc43)nc3ccccc23)cc1	=	35.7
CC(=O)N(C)C(C(=O)N1CC(C)CC1C(=O)N(C)C1C(=O)NC(CC(C)C)C(=O)N2CC(C)CC2C(=O)NC(CC(C)C)C(=O)N(C)C(C(C)C)C(=O)N2CCCC2C(=O)N(C)C(CC(C)C)C(=O)NCC(=O)OC1C)C(C)C (stereo unspecified)	>	100
CCOC(=O)NC(NCC(O)c1ccccc1)(C(F)(F)F)C(F)(F)F (stereo unspecified)	>	100
COc1ccccc1-c1cc(=O)c2c(C)cc(C)nc2[nH]1	>	100
CCOC(=O)C1=C(C#N)S(=O)(=O)c2c(oc(C)c2C)N1	>	100
CN(C)CCCNc1nc2ccccc2c2c(=O)c3cc(F)ccc3sc12	=	2.75
Cc1ccc(O)c(-c2cc(-c3cccc(Br)c3)c(C#N)c(N)n2)c1	=	52.7
N#Cc1cc(-c2ccnc(Nc3ccc(NC(=O)CCl)cc3)n2)ccc1N1CCCC1	=	10.1
CN(C)C1C(CO)OC(n2cnc3c(N)ncnc32)C1O (stereo unspecified)	>	100
O=C(O)/C(=C/c1ccccc1)c1ccccc1	>	100

* * *

- Tested on: HCT-116 colon
- TEST: NCI tumour cell line growth inhibition, 48 h
Quick reference: TGI of the listed items.
ASSAY_METRIC: TGI

> print(dat)
                                    molecule  assayed.target  assay.metric  observed.result
 1  CN(C)CCNc1c2c(c(NCCN(C)C)c3c(CN(C)C)c[nH]c13)C(=O)c1ccccc1C2=O   HCT-116 colon           TGI         > 100 µM
 2  COC1=C(C)C(=O)N2[C@@H]1[C@H](c1ccccc1)OC21C=CC(=O)C=C1   HCT-116 colon           TGI          3.81 µM
 3                  O=c1cn[nH]c2nc3ccccc3n12   HCT-116 colon           TGI         > 100 µM
 4               CCOc1ccccc1/C=C(/C#N)C(N)=O   HCT-116 colon           TGI         > 100 µM
 5  COc1ccc(-c2cc(C(=O)N3N=C(c4ccc(N)cc4)CC3c3ccc(Cl)cc3)c3ccccc3n2)cc1 (stereo unspecified)   HCT-116 colon           TGI         > 100 µM
 6  COc1cc2c(c(OC)c1OC)CCNC2C1=C(O)COC1=O (stereo unspecified)   HCT-116 colon           TGI         > 100 µM
 7  O=C(C(=O)c1cc(-c2ccccc2)nc2ccc3ccccc3c12)c1ccccc1   HCT-116 colon           TGI            39 µM
 8  CCOC(=O)NC(NCC(O)c1ccccc1)(C(F)(F)F)C(F)(F)F (stereo unspecified)   HCT-116 colon           TGI         > 100 µM
 9   Cc1cc(=O)[nH]c(-n2[nH]c3c(c2=O)CCCC3)n1   HCT-116 colon           TGI         > 100 µM
10  C(=N\c1cc2cc(Sc3ccccc3)ccc2[nH]1)/c1ccccc1   HCT-116 colon           TGI        > 12.5 µM
11    COc1ccccc1-c1cc(=O)c2c(C)cc(C)nc2[nH]1   HCT-116 colon           TGI         > 100 µM
